Listed here are molecules together with their documented potency estimated from few doses.
system: CSNK1G1; parameters: species or system human, MV4-11 + K-562 + COLO205 + SK-N-BE2 + OVCAR-8; settings: read-out: apparent Kd; compound concentrations:100 nM and 1000 nM (sheet 'Samples'); n = 1
Number in nM, nothing else.

1) Nc1nc(N)c2nc(-c3ccccc3)[nH]c2n1; 924

Exercise: Returns the measured potency estimated from few doses for the input molecule. Input: Cc1cnc(Nc2ccc(F)cc2Cl)nc1-c1c[nH]c(C(=O)N[C@H](CO)c2cccc(Cl)c2)c1 [Vertex11e]
Key: 2060

Exercise: Returns the measured potency estimated from few doses for the input molecule. Input: Cc1occc1-c1nc(N)c(OC[C@@H](N)Cc2c[nH]c3ccccc23)cc1-c1cc2c(C)n[nH]c2cn1 [GSK1660450B]
Key: 1340

Exercise: Returns the measured potency estimated from few doses for the input molecule. Input: CC(=O)c1c(-c2ccncc2)[nH]c(-c2ccncc2)c1C [GW493036X]
Key: 717
